Assay: yeast display, Sf9 membrane polyspecificity reagent, FACS + sequencing; frameworks hold sequencing errors

- sequence: "QVQLHESAGGLEQAGGCLSCTASGTIFGQGDMCWYLQAPGKEPELVGTINDGASTYYADSVKGRFTISRDKAKNTVYLQKNSLKPADTAVYYCSVFTDITTYFGYWGQGTQVTVSS"
  polyreactivity (PSR sort gate): "low polyreactivity"
- sequence: "KVQLVESGGGLVQAGGSLRISCAASGSIFGYYTMGWYRQAPGKERELVARITRGGSTYYADSVKGRFTISRDNAKNTVYLHMNSLKPEDTAVYFCNADSRYRYEYWGLGTQVTVSS"
  polyreactivity (PSR sort gate): "low polyreactivity"
- sequence: "QVQLVESCGGLDQAGGSLRLSCAASALTFVDNAMGWYRQAPGKERELVAAISYNGGSTYYADSVKGRFTISRDNAKNTVYLQMNCLKPEDTAVYYCAADISVGRYGDMDYWGQGTLVTVSS"
  polyreactivity (PSR sort gate): "low polyreactivity"
- sequence: "QVQLVESGGGLVQAGGSLRLSCAASGNIFRAYAMGWYRQAPGKERELVARISASGGSTYYADSVKGRFTISRDNAKNTVYLQMNSLKPEDTAVYYCAARVRVRLGRNWSSYYYWGQGTQVTVSS"
  polyreactivity (PSR sort gate): "high polyreactivity"
- sequence: "QVQLVESGGCLVHAGGSLRLSCAASGFTFRWYAMGWYRQAPGKERELVASISRRGGSTYYADSVKGRFTISRDNEKNTVYLQMNSLKPEDSAVYYCAADYYDYWGQGTQVTVSS"
  polyreactivity (PSR sort gate): "high polyreactivity"
- sequence: "QVQLVESGGGLVQAGGSLRLSCPASGGIFGRYAMGWYRQAPGKERELVAAISSSGGRTYYADSVKGRFTISRDNAKNTVYLQMNSLKPEDTAVYYCNADRHSTYGYWGQGTQVTVSS"
  polyreactivity (PSR sort gate): "high polyreactivity"
- sequence: "QVQLVESGGGFVQAGGSLRLSCAASGSIFDPYAMGWYIQAPGKERELVAAINWSGDSTYYADSVKGRFTISRDNAKNTVYLQMYSLKPEDTAVYYCAADPTDDTHLYYYWRQGTQVTVSS"
  polyreactivity (PSR sort gate): "low polyreactivity"
- sequence: "HVQLVESGGGLVQAGGSLRLSCAASGSTFYNNAMGWTRQAPGKERELVAAITSSVGSTQYADSVKGRFTISRDKAKNTVYLPMNSLKPADTAVYYCAATFGYGRYGYWGQGTQVTVSS"
  polyreactivity (PSR sort gate): "low polyreactivity"
- sequence: "QVQLVESGGGLVQAGGSLRLSCAASGRTFRYYAMGWYRQAPGKERELVAAISVRTGSTSYADSVKGRFTISRDNAKNTVYLQMNSLKPEDTAVYYCNAPQPGKGRTRTRYYYWGQGTQVTVSS"
  polyreactivity (PSR sort gate): "high polyreactivity"
- sequence: "QVQLVESGGGLVQAGGSLRLSCAASGRTIGSNVMGWYRQAPGKERELVAAITYSGVSTYADSVKGRFTISRDNAKNTVYLQINSLKPEDTAVYYCNAYPTTYYQQYDYWGQGTQVTVSS"
  polyreactivity (PSR sort gate): "low polyreactivity"
- sequence: "QVQLVESGGGLVQAGGSLRLSCAASGSILSLNGMGWYRQAPGKERELVAVIRSGGSTYYADSVKGRFTISRDNAKNTVYLQMNSLKPEDTAVYYCNAQDYLTTVPDPEYDYWGQGTQVTVSS"
  polyreactivity (PSR sort gate): "low polyreactivity"

Each recorded value in this set is attributed to the nanobody polyreactivity screen of Harvey et al. (2022).
